Hey, just so you know, these numbers are from the supplement of paper PMC4466140.

biological target: SpRvs167; assay: SPOT peptide array binding signal intensity (averaged, normalized) (arbitrary units (background-subtracted, floor 0; scale differs between SH3 domains)); higher = stronger binding of the SH3 domain to the peptide
Label 0.0 if SPOT peptide array binding signal intensity falls below 20; label 1.0 in every other case.

* RRRDFGAPANKRPRR | 0.0
* EEEEEHPPLPARRKS | 1.0
* NRARYLPQNPDIIAG | 0.0
* VPPVPLPFGIPPFPM | 1.0
* HVRRSILALPLGVLL | 0.0
* ANNQGPPNLPARDKS | 1.0
* LTRRFPFLFPFDTRM | 0.0
* KRNRLKILLPFLEQS | 0.0
* QLMKNLPKIPLLNDI | 1.0
* VQPTAAPATPPRHIS | 1.0
* SSSSSPPPLPTRRDH | 1.0
* TSIEIPKRSPLRFTS | 1.0
* DTIDNVKSKIQDKEG | 0.0
* EVTPKVPERPSRRKT | 1.0
* LEFRAILFIPKRAPF | 0.0
* VQKRKLPLPGSIASA | 1.0
* LKPPIGRPPKFPKSP | 0.0
* TKIRRRPQQPLTDFT | 0.0
* TPEIPPPLPPKIMVH | 1.0
* NLPKRKPPKLQGPFS | 0.0
* AHFQPQRTAPKPPIS | 0.0
* SKIRPTPRKPSRMAT | 1.0
* GKKVRPLLVLLLSRA | 0.0
* PLRRTVMSLPGNHDI | 1.0
* IKKRNKIRLPSGSPE | 0.0
* TPRLSLPRLPNKHHW | 1.0
* STKKPRPPVKSKPKH | 0.0
* KIRRSSLMIPNPQQF | 0.0
* RRSKSLPITPKSIFN | 0.0
* FPGKKSPRLPHRNKK | 1.0
